From: patent US20160137730A1

Biological target: T1, Rat P-cadherin (CDH3) D1-5 (rat, UniProt P10287 100-647 (mouse entry))
T1 construct: Rat CDH3 residues 100-647 with a C-terminal 6xHis tag (NM_053938.1, NP_446390); it may include leader and vector residues; also called rat pCAD-6xHis
T1 chain: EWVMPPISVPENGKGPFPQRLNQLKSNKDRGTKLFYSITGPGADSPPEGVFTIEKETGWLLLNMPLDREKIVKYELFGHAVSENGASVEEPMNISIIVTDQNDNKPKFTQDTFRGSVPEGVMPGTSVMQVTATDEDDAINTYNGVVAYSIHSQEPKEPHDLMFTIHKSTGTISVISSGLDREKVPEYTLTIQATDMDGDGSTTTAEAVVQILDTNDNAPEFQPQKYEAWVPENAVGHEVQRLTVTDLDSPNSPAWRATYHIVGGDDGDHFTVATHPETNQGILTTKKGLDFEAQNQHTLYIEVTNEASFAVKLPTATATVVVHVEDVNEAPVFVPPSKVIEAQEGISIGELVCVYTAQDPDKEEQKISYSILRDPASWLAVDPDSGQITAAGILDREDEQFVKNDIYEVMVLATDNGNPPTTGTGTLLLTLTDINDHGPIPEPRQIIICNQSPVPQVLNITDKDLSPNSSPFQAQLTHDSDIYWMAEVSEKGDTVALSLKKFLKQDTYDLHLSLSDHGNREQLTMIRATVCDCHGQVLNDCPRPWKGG
Assay: SPR Biacore, Ab captured via Protein A, ECD-6xHis analyte, 25C, 1:1 fit
Reported pKd values for a set of binders
Would you please state pKd, meaning minus log10 of the concentration in mol/L, as a bare number?

Here's what some known entries look like.
NEG0016 (antibody, human IgG1, kappa, V domains shown, Humanized anti-P-cadherin antibody derived from a murine hybridoma; also called NEG0016 Naked) VH: QIQLVQSGAEVKKPGSSVKVSCKVSGYTFTDHTLHWMRQAPGQGLEWMGYIYPRSGSTKYNENFRGRVTITADTSSSTAYMELSSLRSEDTAVYYCARRLLFLPLDYWGQGTLVTVSS VL: EIVMTQSPATLSLSPGERATLSCRSSQSLLSSGNQKSYLTWYQQKPGQAPRLLIYWASTRESGIPARFSGSGSGTDFTLTISSLQPEDFAVYYCQNDYSYPFTFGQGTKLEIKR : 7.22
NEG0064 (antibody, human IgG1, kappa, V domains shown, Humanized anti-P-cadherin antibody derived from a murine hybridoma; also called NEG0064 Naked) VH: QIQLVQSGAEVKKPGSSVKVSCKVSGYTFTDHTLHWMRQAPGQGLEWMGYIYPRSGSTKYNENFRGRVTITADTSSSTAYMELSSLRSEDTAVYYCVRRLLFLPLDYWGQGTLVTVSS VL: EIVMTQSPATLSLSPGERATLSCRSSQSLLSSGNQKSYLTWYQQKPGQAPRLLIYWASTRESGIPARFSGSGSGTDFTLTISSLQPEDFAVYYCQNDYSYPFTFGQGTKLEIKR : 8.05
NEG0013 (antibody, human IgG1, kappa, V domains shown, Humanized anti-P-cadherin antibody derived from a murine hybridoma; also called NEG0013 Naked) VH: EVQLVQSGAEVKKPGESLKISCKVSGYTFTDHTIHWMRQMPGKGLEWMGYIYPRSGSINYNEKFKGQVTISADKSSSTAYLQWSSLKASDTAMYYCARRNLFLPMEYWGQGTLVTVSS VL: DIVMTQTPLSLPVTPGEPASISCRSSQSLLSSGNQKNYLTWYLQKPGQSPQLLIYWASTRESGVPDRFSGSGSGTDFTLKISRVEAEDVGVYYCQNDYSYPLTFGQGTKLEIKR : 7.43

Now let's try a different one.
Given the binder NEG0067 (antibody, human IgG1, kappa, V domains shown, Humanized anti-P-cadherin antibody derived from a murine hybridoma; also called NEG0067 Naked) VH: QIQLVQSGAEVKKPGSSVKVSCKVSGYTFTDHTLHWMRQAPGQGLEWMGYIYPRSGSTKYNENFKGRVTITADTSSSTAYMELSSLRSEDTAVYYCVRRLLFLPLDYWGQGTLVTVSS VL: EIVMTQSPATLSLSPGERATLSCRSSQSLLSSGNQKSYLTWYQQKPGQAPRLLIYWASTRESGIPARFSGSGSGTDFTLTISSLQPEDFAVYYCQNDYSYPFTFGQGTKLEIKR , what is its reported pKd?
7.99
